Measured Mean Signal Value of individual entries
Target: T1, human CD26-derived 13 mer peptide 22 (human)
T1 peptide: LENSTFDEFGHSI
Assay: peptide microarray
Give the value as a plain number.

1) rhuMAb 420 (antibody, human IgG1, V domains shown, X420 VH and X380 VL with human IgG1 and human kappa constant regions; also called X420 (IgG1)) VH: EVQLVESGGGVKQPGETLRLTCTASGFSLSTYGVHWVRQAPGKGLEWVGVIWGDGRTDYDAAFMSRVTISKDTSKSTVYLQMNSLRAEDTAVYYCMRNRHDWFDYWGQGTTVTVSS VL: EIEMTQSPSSLSVSAGERATISCSASQDIRNSLNWYQQKPGQAPRLLIYYSSNLHTGVPARFSGSGSGTDFTLTISRLEPEDVAIYYCQQSNKLPLTFGSGTKVEIKR
0
2) rhuMAb 409 (antibody, human IgG1, V domains shown, CM03 VH and VL with human IgG1 heavy chain constant region and human kappa constant region; also called X409) VH: QVKLQESGPGLVQPSQTLSITCTVSGFSLTTYGVHWVRQSPGKGLEWLGVIWGGGRTDYDAAFISRLSISKDNSKSQVFFKMNSLQANDTAIYYCVRNRHDWFDYWGQGTTVTVSS VL: DIQMTQSPSSLSASLGDRVTITCSASQGIRNSLNWYQQKPDGAVKLLIYYSSNLHSGVPSRFSGSGSGTDFSLTISNLEPEDIATYYCQQSIKLPFTFGSGTKLEIKR
0

Please look up its Mean Signal Value: rhuMAb 412 (antibody, human IgG1, V domains shown, X385 VH and X380 VL with human IgG1 and human kappa constant regions; also called X412) VH: EVQLVQSGGGVKQPGETLRLTCTASGFSLTTYGVHWVRQAPGKGLEWVGVIWGDGRTDYDAAFMSRVTISKDTSKSTAYLQMNSLRAEDTAVYYCMRNRHDWFDYWGQGTTVTVSS VL: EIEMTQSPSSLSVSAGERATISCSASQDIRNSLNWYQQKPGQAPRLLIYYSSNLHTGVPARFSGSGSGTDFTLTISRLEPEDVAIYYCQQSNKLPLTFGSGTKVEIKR 0
